target: T1, human CD47 (hCD47) expressed on cells (human, UniProt Q08722 19-323); experiment: flow cytometry, Raji cells
T1 construct: Transfected CHO cells or endogenous CD47 of human cells; also called CHO-hCD47; CD47 on Raji cells
Measured endpoint: EC50 (µg/mL)
Numbers only, in µg/mL.

QUERY: Could you tell me which EC50 is on file for h22-VH4-VL4 (candidate 22.16) (antibody, human IgG4 S228P, kappa, V domains shown, hIgG4-S228P/kappa) VH: QVQLVQSGAEVKKPGASVKVSCKGSGYTFTTYWMHWVRQAPGQGLEWMGMIHPNSGTTNYNEKFKSRVTLTRDTSISTAYMELSRLTSDDTAVYYCTRSHYYDGHFSYWGQGTMVTVSS VL: DIVMTQSPDSLPVSLGERATINCKSSQSLLNSRTRKNYLAWYQQKPGQPPKLLIYWASTRESGVPDRFTGSGSGTDFTLTISALQAEDVAVYYCKQSYNLWTFGQGTRLEIKR ?
RESULT: 0.184
